- TESTED TARGET: DPP IV (Homo sapiens, UniProt P27487)
- Construct: using human plasma as a source of DPP IV; from tissue; host or cells: human plasma
- Sequence (P27487 39-766 limits assumed): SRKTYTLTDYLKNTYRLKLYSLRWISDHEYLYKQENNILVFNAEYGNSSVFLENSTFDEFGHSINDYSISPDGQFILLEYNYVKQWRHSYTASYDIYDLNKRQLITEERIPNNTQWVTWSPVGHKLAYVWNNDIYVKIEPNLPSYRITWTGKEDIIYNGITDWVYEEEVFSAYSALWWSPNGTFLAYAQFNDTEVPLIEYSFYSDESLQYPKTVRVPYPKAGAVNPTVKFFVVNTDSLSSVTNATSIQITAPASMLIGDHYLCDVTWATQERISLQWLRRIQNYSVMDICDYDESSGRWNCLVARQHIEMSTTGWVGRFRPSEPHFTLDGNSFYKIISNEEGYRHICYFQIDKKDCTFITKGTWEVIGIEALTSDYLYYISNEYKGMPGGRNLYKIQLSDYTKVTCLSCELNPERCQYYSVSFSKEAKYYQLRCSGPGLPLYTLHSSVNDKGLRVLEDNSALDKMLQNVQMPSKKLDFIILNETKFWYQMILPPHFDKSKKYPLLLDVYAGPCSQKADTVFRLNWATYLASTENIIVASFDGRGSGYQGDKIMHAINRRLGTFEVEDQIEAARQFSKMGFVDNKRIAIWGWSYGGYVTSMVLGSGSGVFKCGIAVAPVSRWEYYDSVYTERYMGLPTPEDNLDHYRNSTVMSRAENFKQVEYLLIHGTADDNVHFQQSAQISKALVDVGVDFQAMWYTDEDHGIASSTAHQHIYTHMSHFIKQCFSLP
- PROCEDURE TEXT: DPP IV assay (human plasma as source, H-gly-pro AMC substrate)
- Format: biochemical
- EXPERIMENTAL PARAMETERS: 1 μM, compared to vehicle control
READOUT: inhibition at 1 µM (%)

(1) CCN1C(=O)OCC1Cc1ccc(Oc2ccc(/C=C3/SC(=S)NC3=O)cc2C(F)(F)F)cc1 (stereo not shown)
(2) CN1C(=O)OCC1Cc1ccc(Oc2ccc(/C=C3\C(=O)Nc4ccccc43)cc2C(F)(F)F)cc1 (stereo not shown)
INPUT: Choose between 1 and 2 : whose measured inhibition at 1 µM value is numerically larger? Respond with the label that goes with your answer.
OUTPUT: 2

(I) CN1C(=O)OCC1Cc1ccc(Oc2ccc(/C=C3/C(=O)Nc4ccccc43)cc2F)cc1 (stereo not shown)
(II) CN1C(=O)OCC1Cc1ccc(Oc2ccc(/C=C3/SC(=S)NC3=O)cc2)cc1 (stereo not shown)
INPUT: Given I and given II , which shows the smaller recorded inhibition at 1 µM? Respond with the label that goes with your answer.
OUTPUT: I
(I: 3.55%, II: 9.52%)

----------
// reported inhibition at 1 µM per item
- System: IL-1β
- PROCEDURE TEXT: IL-1β inhibition in LPS-challenged human PBMC
- Format: cell-based
- EXPERIMENTAL PARAMETERS: Homo sapiens, PBMC; 1 μM, LPS 100 ng/mL, 20 hours; read-out: % Inhibition IL1beta
Return type: number; implicit unit %.

Take a look at these entries with their results.
compound="CCN1C(=O)OCC1Cc1ccc(Oc2ccc(CC3C(=O)Nc4ccccc43)cc2OC)cc1 (centres unmarked)" number=33.3
compound="CCN1C(=O)OCC1Cc1ccc(Oc2ccc(/C=C3\\C(=O)Nc4ccccc43)cc2C(F)(F)F)cc1 (centres unmarked)" number=1.78
compound="CN1C(=O)OCC1Cc1ccc(Oc2ccc(/C=C3\\C(=O)Nc4ccccc43)cc2)cc1 (centres unmarked)" number=1.55
compound="CN1C(=O)OCC1Cc1ccc(Oc2ccc(CC3C(=O)Nc4ccccc43)cc2)cc1 (centres unmarked)" number=8.77

Now let's try a different one.
INPUT: Find the measured inhibition at 1 µM of COc1cc(CC2C(=O)Nc3ccccc32)ccc1Oc1ccc(CC2COC(=O)N2C)cc1 (centres unmarked) and report it.
OUTPUT: 12.1

----------
- Tested on: TNF-α
- PROCEDURE TEXT: TNF-α inhibition in LPS-challenged human PBMC
- Type: cell-based
- EXPERIMENTAL PARAMETERS: Homo sapiens, PBMC; 10 μM, LPS 100 ng/mL, 20 hours; read-out: % Inhibition TNF alpha
READOUT: inhibition at 10 µM (%)
Return type: number; implicit unit %.

molecule="CCN1C(=O)OCC1Cc1ccc(Oc2ccc(CC3C(=O)Nc4ccccc43)cc2OC)cc1 (centres unmarked)" tested_target=TNF-α number=50.6
molecule="CCN1C(=O)OCC1Cc1ccc(Oc2ccc(/C=C3\\C(=O)Nc4ccccc43)cc2)cc1 (centres unmarked)" tested_target=TNF-α number=9.77
molecule="CCN1C(=O)OCC1Cc1ccc(Oc2ccc(/C=C3\\C(=O)Nc4ccccc43)cc2F)cc1 (centres unmarked)" tested_target=TNF-α number=28.1

INPUT: For TNF-α, give the measured inhibition at 10 µM of the entry CN1C(=O)OCC1Cc1ccc(Oc2ccc(/C=C3\C(=O)Nc4ccccc43)cc2)cc1 (centres unmarked)
OUTPUT: 2.85

INPUT: For TNF-α, give the measured inhibition at 10 µM of the entry CN1C(=O)OCC1Cc1ccc(Oc2ccc(/C=C3/C(=O)Nc4ccccc43)cc2F)cc1 (centres unmarked)
OUTPUT: 6.43

INPUT: For TNF-α, give the measured inhibition at 10 µM of the entry CCN1C(=O)OCC1Cc1ccc(Oc2ccc(/C=C3\C(=O)Nc4ccccc43)cc2Cl)cc1 (centres unmarked)
OUTPUT: 35

INPUT: For TNF-α, give the measured inhibition at 10 µM of the entry CCN1C(=O)OCC1Cc1ccc(Oc2ccc(CC3C(=O)Nc4ccccc43)cc2C(F)(F)F)cc1 (centres unmarked)
OUTPUT: 1.67

INPUT: For TNF-α, give the measured inhibition at 10 µM of the entry CN1C(=O)OCC1Cc1ccc(Oc2ccc(/C=C3\C(=O)Nc4ccccc43)cc2C(F)(F)F)cc1 (centres unmarked)
OUTPUT: 25.4

INPUT: For TNF-α, give the measured inhibition at 10 µM of the entry COc1cc(CC2C(=O)Nc3ccccc32)ccc1Oc1ccc(CC2COC(=O)N2C)cc1 (centres unmarked)
OUTPUT: 34

INPUT: For TNF-α, give the measured inhibition at 10 µM of the entry CN1C(=O)OCC1Cc1ccc(Oc2ccc(CC3C(=O)Nc4ccccc43)cc2)cc1 (centres unmarked)
OUTPUT: 15.6

INPUT: For TNF-α, give the measured inhibition at 10 µM of the entry CCN1C(=O)OCC1Cc1ccc(Oc2ccc(/C=C3\C(=O)Nc4ccccc43)cc2C(F)(F)F)cc1 (centres unmarked)
OUTPUT: 15.9
